biological target: β-kinase domain of the human insulin receptor (CKD) (Homo sapiens); construct: The complete β-kinase domain of the human insulin receptor (CKD); made in house; assay: 32P-Cytoplasmic Kinase Domain (CKD) autophosphorylation assay; type: biochemical; details: 32P incorporated into CKD band, percentage of the vehicle (DMSO) level; 10 minutes at room temperature; compound concentration not given
Recorded measurements of Activity (% Control), one per entry
measured-metric: Activity (% Control)

- O=C(Nc1ccccc1)Nc1cc(C(=O)Nc2cccc3cc(S(=O)(=O)O)ccc23)cc(C(=O)Nc2cccc3cc(S(=O)(=O)O)ccc23)c1 [Compound 66]: 115.5
- O=C(Nc1cc(C(=O)Nc2cccc3cc(S(=O)(=O)O)ccc23)cc(C(=O)Nc2cccc3cc(S(=O)(=O)O)ccc23)c1)c1cccc(Cl)c1 [Compound 10]: 123.1
- O=C(Nc1cccc2cc(S(=O)(=O)O)ccc12)c1cc(NC(=O)c2cccc3ccccc23)cc(C(=O)Nc2cccc3cc(S(=O)(=O)O)ccc23)c1 [Compound 25]: 83.7
- Cc1ccc(NC(=O)CCC(=O)Nc2cc(C(=O)Nc3cccc4cc(S(=O)(=O)O)ccc34)cc(C(=O)Nc3cccc4cc(S(=O)(=O)O)ccc34)c2)cc1 [Compound 42]: 116.7
- O=C(Nc1cc(C(=O)Nc2cccc3cc(S(=O)(=O)O)ccc23)cc(C(=O)Nc2cccc3cc(S(=O)(=O)O)ccc23)c1)c1ccncc1 [Compound 35]: 105.9
- O=C(Nc1cccc2cc(S(=O)(=O)O)ccc12)c1cc(NC(=O)c2ccccc2C(=O)O)cc(C(=O)Nc2cccc3cc(S(=O)(=O)O)ccc23)c1 [Compound 17]: 92.7
- O=C(Nc1cccc2cc(S(=O)(=O)O)ccc12)c1cc(NS(=O)(=O)Cc2ccccc2)cc(C(=O)Nc2cccc3cc(S(=O)(=O)O)ccc23)c1 [Compound 56]: 102.4
- CC(=O)Nc1cc(C(=O)Nc2cccc3cc(S(=O)(=O)O)ccc23)cc(C(=O)Nc2cccc3cc(S(=O)(=O)O)ccc23)c1 [Compound 23]: 86.8
- COc1cccc(C(=O)Nc2cc(C(=O)Nc3cccc4cc(S(=O)(=O)O)ccc34)cc(C(=O)Nc3cccc4cc(S(=O)(=O)O)ccc34)c2)c1 [Compound 13]: 83.7
- O=C(Nc1cccc2cc(S(=O)(=O)O)ccc12)c1cc(NC(=O)C2CCCCC2)cc(C(=O)Nc2cccc3cc(S(=O)(=O)O)ccc23)c1 [Compound 33]: 122.5
- O=C(Cc1ccccc1)Nc1cc(C(=O)Nc2cccc3cc(S(=O)(=O)O)ccc23)cc(C(=O)Nc2cccc3cc(S(=O)(=O)O)ccc23)c1 [Compound 37]: 113.2
- Cc1cc(C)c(S(=O)(=O)Nc2cc(C(=O)Nc3cccc4cc(S(=O)(=O)O)ccc34)cc(C(=O)Nc3cccc4cc(S(=O)(=O)O)ccc34)c2)c(C)c1 [Compound 55]: 121.6

---

Target: β-kinase domain of the human insulin receptor (CKD) (Homo sapiens)
Construct: The complete β-kinase domain of the human insulin receptor (CKD); made in house
Experiment: 32P-Cytoplasmic Kinase Domain (CKD) autophosphorylation assay
Type: biochemical
Conditions: 32P incorporated into CKD band, percentage of the vehicle (DMSO) level; 10 minutes at room temperature; compound concentration not given
From the text: The complete β-kinase domain of the human insulin receptor (CKD) was expressed in, and purified from, baculovirus. […] The radioactivity incorporated into the CKD band is quantified by phosphorimaging of the gel, or scintillation counting of the excised bands. The potency of a compound for increasing phosphorylation is expressed as a percentage of the vehicle level.
Recorded measurements of Activity (% Control), one per entry
measured-metric: Activity (% Control)

- O=C(Nc1cc(C(=O)Nc2cccc3cc(S(=O)(=O)O)ccc23)cc(C(=O)Nc2cccc3cc(S(=O)(=O)O)ccc23)c1)c1ccc(Cl)cc1 [Compound 19]: 99
- O=C(Cc1cccc(Cl)c1)Nc1cc(C(=O)Nc2cccc3cc(S(=O)(=O)O)ccc23)cc(C(=O)Nc2cccc3cc(S(=O)(=O)O)ccc23)c1 [Compound 44]: 124.8
- O=C(Nc1cccc2cc(S(=O)(=O)O)ccc12)c1cc(NC(=O)c2c(Cl)ccc(Cl)c2C(=O)O)cc(C(=O)Nc2cccc3cc(S(=O)(=O)O)ccc23)c1 [Compound 20]: 84.9
- O=C(Nc1cc(C(=O)Nc2cccc3cc(S(=O)(=O)O)ccc23)cc(C(=O)Nc2cccc3cc(S(=O)(=O)O)ccc23)c1)c1cccc(F)c1 [Compound 11]: 94
- O=C(O)CC(C(=O)Nc1cc(C(=O)Nc2cccc3cc(S(=O)(=O)O)ccc23)cc(C(=O)Nc2cccc3cc(S(=O)(=O)O)ccc23)c1)c1ccccc1 (centres unmarked) [Compound 27]: 161.2
- O=C(Nc1cc(C(=O)Nc2cccc3cc(S(=O)(=O)O)ccc23)cc(C(=O)Nc2cccc3cc(S(=O)(=O)O)ccc23)c1)c1ccccc1 [Compound 22]: 75.9
- O=C(Nc1cc(C(=O)Nc2cccc3cc(S(=O)(=O)O)ccc23)cc(C(=O)Nc2cccc3cc(S(=O)(=O)O)ccc23)c1)Nc1ccccc1Cl [Compound 59]: 120.4
- COc1ccc(S(=O)(=O)Nc2cc(C(=O)Nc3cccc4cc(S(=O)(=O)O)ccc34)cc(C(=O)Nc3cccc4cc(S(=O)(=O)O)ccc34)c2)cc1 [Compound 52]: 111.1
- O=C(COc1ccccc1)Nc1cc(C(=O)Nc2cccc3cc(S(=O)(=O)O)ccc23)cc(C(=O)Nc2cccc3cc(S(=O)(=O)O)ccc23)c1 [Compound 38]: 84.7
- O=C(Nc1cccc2cc(S(=O)(=O)O)ccc12)c1cc(NS(=O)(=O)c2ccc(F)cc2)cc(C(=O)Nc2cccc3cc(S(=O)(=O)O)ccc23)c1 [Compound 51]: 133.0
- COc1ccc(C(=O)Nc2cc(C(=O)Nc3cccc4cc(S(=O)(=O)O)ccc34)cc(C(=O)Nc3cccc4cc(S(=O)(=O)O)ccc34)c2)cc1 [Compound 9]: 125.3
- O=C(Nc1cccc2cc(S(=O)(=O)O)ccc12)c1cc(NC(=O)c2cccc(O)c2C(=O)O)cc(C(=O)Nc2cccc3cc(S(=O)(=O)O)ccc23)c1 [Compound 21]: 104.3
- O=C(Nc1ccc(Cl)cc1)Nc1cc(C(=O)Nc2cccc3cc(S(=O)(=O)O)ccc23)cc(C(=O)Nc2cccc3cc(S(=O)(=O)O)ccc23)c1 [Compound 58]: 106.4
- Cc1ccc(S(=O)(=O)Nc2cc(C(=O)Nc3cccc4cc(S(=O)(=O)O)ccc34)cc(C(=O)Nc3cccc4cc(S(=O)(=O)O)ccc34)c2)cc1 [Compound 53]: 105.7
- O=C(Nc1cc(C(=O)Nc2cccc3cc(S(=O)(=O)O)ccc23)cc(C(=O)Nc2cccc3cc(S(=O)(=O)O)ccc23)c1)c1ccc(F)cc1 [Compound 12]: 88.6
- Cc1ccc(CC(=O)Nc2cc(C(=O)Nc3cccc4cc(S(=O)(=O)O)ccc34)cc(C(=O)Nc3cccc4cc(S(=O)(=O)O)ccc34)c2)cc1 [Compound 43]: 124.2
- O=C(Nc1cccc2cc(S(=O)(=O)O)ccc12)c1cc(NC(=O)c2ccco2)cc(C(=O)Nc2cccc3cc(S(=O)(=O)O)ccc23)c1 [Compound 34]: 119.5
- COc1ccccc1NC(=O)Nc1cc(C(=O)Nc2cccc3cc(S(=O)(=O)O)ccc23)cc(C(=O)Nc2cccc3cc(S(=O)(=O)O)ccc23)c1 [Compound 63]: 94.4
- O=C(Nc1cccc2cc(S(=O)(=O)O)ccc12)c1cc(NC(=O)c2cnc3ccccc3n2)cc(C(=O)Nc2cccc3cc(S(=O)(=O)O)ccc23)c1 [Compound 39]: 96.9
- COc1ccc(CC(=O)Nc2cc(C(=O)Nc3cccc4cc(S(=O)(=O)O)ccc34)cc(C(=O)Nc3cccc4cc(S(=O)(=O)O)ccc34)c2)cc1 [Compound 41]: 136.6
- Cc1cccc(NC(=O)Nc2cc(C(=O)Nc3cccc4cc(S(=O)(=O)O)ccc34)cc(C(=O)Nc3cccc4cc(S(=O)(=O)O)ccc34)c2)c1 [Compound 61]: 114.6
- O=C(O)c1ccc(C(=O)Nc2cc(C(=O)Nc3cccc4cc(S(=O)(=O)O)ccc34)cc(C(=O)Nc3cccc4cc(S(=O)(=O)O)ccc34)c2)cc1 [Compound 31]: 159.2
- O=C(O)c1cccc(C(=O)Nc2cc(C(=O)Nc3cccc4cc(S(=O)(=O)O)ccc34)cc(C(=O)Nc3cccc4cc(S(=O)(=O)O)ccc34)c2)c1 [Compound 30]: 84.1

---

target: β-kinase domain of the human insulin receptor (CKD) (Homo sapiens, UniProt P06213); construct: The complete β-kinase domain of the human insulin receptor (CKD); made in house; assay: 32P-Cytoplasmic Kinase Domain (CKD) autophosphorylation assay; format: biochemical; conditions: 32P incorporated into CKD band, percentage of the vehicle (DMSO) level; 10 minutes at room temperature; compound concentration not given
Sequence (P06213 980-1382 limits assumed): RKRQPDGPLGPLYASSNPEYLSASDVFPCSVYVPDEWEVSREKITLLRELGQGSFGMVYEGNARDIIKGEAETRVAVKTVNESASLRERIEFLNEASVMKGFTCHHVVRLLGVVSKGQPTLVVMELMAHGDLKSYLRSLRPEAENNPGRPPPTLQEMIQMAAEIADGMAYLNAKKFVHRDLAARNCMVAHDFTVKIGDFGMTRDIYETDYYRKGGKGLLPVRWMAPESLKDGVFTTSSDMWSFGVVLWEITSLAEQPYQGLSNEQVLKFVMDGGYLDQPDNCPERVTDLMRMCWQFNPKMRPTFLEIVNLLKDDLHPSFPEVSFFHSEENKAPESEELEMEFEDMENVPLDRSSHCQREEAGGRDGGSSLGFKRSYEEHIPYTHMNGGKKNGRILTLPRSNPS
measured-metric: Activity (% Control)

• N[C@@H](CC(=O)O)C(=O)Nc1cc(C(=O)Nc2cccc3cc(S(=O)(=O)O)ccc23)cc(C(=O)Nc2cccc3cc(S(=O)(=O)O)ccc23)c1 = 91.4
• Cc1ccc(OCC(=O)Nc2cc(C(=O)Nc3cccc4cc(S(=O)(=O)O)ccc34)cc(C(=O)Nc3cccc4cc(S(=O)(=O)O)ccc34)c2)cc1 = 130.7
• Cc1ccccc1NC(=O)Nc1cc(C(=O)Nc2cccc3cc(S(=O)(=O)O)ccc23)cc(C(=O)Nc2cccc3cc(S(=O)(=O)O)ccc23)c1 = 97.5
• COc1ccc(NC(=O)Nc2cc(C(=O)Nc3cccc4cc(S(=O)(=O)O)ccc34)cc(C(=O)Nc3cccc4cc(S(=O)(=O)O)ccc34)c2)cc1 = 85.9
• COc1cccc(NC(=O)Nc2cc(C(=O)Nc3cccc4cc(S(=O)(=O)O)ccc34)cc(C(=O)Nc3cccc4cc(S(=O)(=O)O)ccc34)c2)c1 = 58.3
• Cc1ccc(NC(=O)Nc2cc(C(=O)Nc3cccc4cc(S(=O)(=O)O)ccc34)cc(C(=O)Nc3cccc4cc(S(=O)(=O)O)ccc34)c2)cc1 = 102.8
• O=C(CC(C(=O)O)c1ccccc1)Nc1cc(C(=O)Nc2cccc3cc(S(=O)(=O)O)ccc23)cc(C(=O)Nc2cccc3cc(S(=O)(=O)O)ccc23)c1 (stereo not shown) = 84.6
• O=C(Nc1cccc2cc(S(=O)(=O)O)ccc12)c1cc(NC(=O)c2cc(Cl)c(Cl)cc2C(=O)O)cc(C(=O)Nc2cccc3cc(S(=O)(=O)O)ccc23)c1 = 95.3
• O=C(Nc1cc(C(=O)Nc2cccc3cc(S(=O)(=O)O)ccc23)cc(C(=O)Nc2cccc3cc(S(=O)(=O)O)ccc23)c1)c1cccnc1 = 123.2
• Cc1cccc(C(=O)Nc2cc(C(=O)Nc3cccc4cc(S(=O)(=O)O)ccc34)cc(C(=O)Nc3cccc4cc(S(=O)(=O)O)ccc34)c2)c1 = 93.3
• O=C(Nc1cccc2cc(S(=O)(=O)O)ccc12)c1cc(NS(=O)(=O)c2cccc3ccccc23)cc(C(=O)Nc2cccc3cc(S(=O)(=O)O)ccc23)c1 = 46.5
• O=C(O)CCC(=O)Nc1cc(C(=O)Nc2cccc3cc(S(=O)(=O)O)ccc23)cc(C(=O)Nc2cccc3cc(S(=O)(=O)O)ccc23)c1 = 109.9
• O=C(Nc1cccc(Cl)c1)Nc1cc(C(=O)Nc2cccc3cc(S(=O)(=O)O)ccc23)cc(C(=O)Nc2cccc3cc(S(=O)(=O)O)ccc23)c1 = 109.6
• O=C(Nc1cccc2cc(S(=O)(=O)O)ccc12)c1cc(NC(=O)c2ccccc2S(=O)(=O)O)cc(C(=O)Nc2cccc3cc(S(=O)(=O)O)ccc23)c1 = 75.6
• O=C(Nc1cccc2cc(S(=O)(=O)O)ccc12)c1cc(NS(=O)(=O)c2ccc(Cl)cc2)cc(C(=O)Nc2cccc3cc(S(=O)(=O)O)ccc23)c1 = 123.8
• Cc1ccc(C(=O)Nc2cc(C(=O)Nc3cccc4cc(S(=O)(=O)O)ccc34)cc(C(=O)Nc3cccc4cc(S(=O)(=O)O)ccc34)c2)cc1[N+](=O)[O-] = 99.9
• O=C(Nc1cccc2cc(S(=O)(=O)O)ccc12)c1cc(NS(=O)(=O)c2ccc3ccccc3c2)cc(C(=O)Nc2cccc3cc(S(=O)(=O)O)ccc23)c1 = 109.3
• O=C(Nc1cc(C(=O)Nc2cccc3cc(S(=O)(=O)O)ccc23)cc(C(=O)Nc2cccc3cc(S(=O)(=O)O)ccc23)c1)c1ccc([N+](=O)[O-])cc1 = 81.7
• Cc1ccc(C(=O)Nc2cc(C(=O)Nc3cccc4cc(S(=O)(=O)O)ccc34)cc(C(=O)Nc3cccc4cc(S(=O)(=O)O)ccc34)c2)cc1 = 130.5
• O=C(Nc1cc(C(=O)Nc2cccc3cc(S(=O)(=O)O)ccc23)cc(C(=O)Nc2cccc3cc(S(=O)(=O)O)ccc23)c1)c1ccc2ccccc2c1 = 89.6
• O=C(Nc1cccc2cc(S(=O)(=O)O)ccc12)c1cc(NS(=O)(=O)c2ccccc2)cc(C(=O)Nc2cccc3cc(S(=O)(=O)O)ccc23)c1 = 114.2
• O=C(Nc1cc(C(=O)Nc2cccc3cc(S(=O)(=O)O)ccc23)cc(C(=O)Nc2cccc3cc(S(=O)(=O)O)ccc23)c1)c1cccc([N+](=O)[O-])c1 = 88.2

The measurements presented in this section are drawn from patent US6653321B1.
